Data origin: PubChem BioAssay

Target: Fibroblast growth factor 10 (Homo sapiens) (UniProt O15520)
Sequence (O15520 whole entry, looked up): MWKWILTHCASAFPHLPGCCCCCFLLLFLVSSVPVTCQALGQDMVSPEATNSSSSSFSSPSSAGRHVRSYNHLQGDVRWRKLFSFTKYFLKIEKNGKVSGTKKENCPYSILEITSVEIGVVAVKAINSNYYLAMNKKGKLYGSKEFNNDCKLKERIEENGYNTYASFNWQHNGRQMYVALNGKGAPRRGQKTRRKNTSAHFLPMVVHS
Assay: FGF10 binders on small-molecule microarrays, primary screen, biochemical, small-molecule microarray, 635 nm fluorescence (AID 1102)
Settings: FGF10 binding, fluorescence 635 nm, higher = more signal
assayEndpoint: composite z-score

INSERT INTO measurements (compound, quantitativeresult) VALUES
  ('CC(C)=CCCC(C)=CCON=C1C[C@@H](O)[C@@H](O)[C@@H]2[C@@H]3C(=O)N(c4cccc(Oc5ccccc5)c4)C(=O)[C@@H]3CC[C@H]12', 0.411),
  ('COc1ccc(COC(=O)NN=C2C[C@@H](O)[C@@H](O)[C@@H]3[C@@H]4C(=O)N(c5cccc(Oc6ccccc6)c5)C(=O)[C@@H]4CC[C@H]23)cc1', -0.0908),
  ('CCOC(=O)NN=C1C[C@@H](O)[C@@H](O)[C@@H]2[C@@H]3C(=O)N(CC)C(=O)[C@@H]3CC[C@H]12', 0.125),
  ('C=CC[C@@H]1C=C[C@H](ON=C2C[C@@H](O)[C@@H](O)[C@@H]3[C@@H]4C(=O)N(CC)C(=O)[C@@H]4CC[C@@H]23)[C@@H](CO)O1', 0.156),
  ('CC(CCN1CCCCc2nc(C)c(C)cc21)=NOC[C@@H](O)[C@H]1O[C@@H]2OC(C)(C)O[C@@H]2[C@H]1O', 0.313),
  ('CCOC(=O)[C@H](CC(C)C)NC(=O)CCC1CC(OC(=O)NCc2ccc3c(c2)OCO3)CC2(CCCC(COC(=O)NCCC(C)C)O2)O1 (stereo partly specified)', 0.136);

====

Assay: HepG2 cell viability effects, profiling panel, calcein-AM fluorescence, 48 h, basal (AID 1164); further: test concentration not given here
Conditions: higher = more signal
// reported z-score per item
assayEndpoint: z-score

INSERT INTO assay_data (molecule, assayendpoint, quantitativeresult) VALUES
  ('COC(=O)[C@@H]1CC[C@H](C)[C@@H](c2ccc(C)cc2)N1C(=O)c1ccc(C=NOC[C@H]2O[C@H](c3ccccc3)C=C[C@@H]2Oc2ccc(OC)cc2)cc1', 'z-score', -0.195),
  ('CO[C@H]1COC(=O)CCC[C@H](C)[C@@H](OC)COC(=O)CC=C[C@@H]1C', 'z-score', 0.205),
  ('COC(=O)CC=C[C@@H](C)[C@@H](C=NOC(C)CN1CCCc2nc(C)c(C)cc21)NS(=O)(=O)c1ccc(C)cc1 (stereo not given in full)', 'z-score', 0.0666),
  ('C=CC[C@@H]1C=C[C@H](ON=C2C[C@@H](O)[C@@H](O)[C@@H]3[C@@H]4C(=O)N(CC)C(=O)[C@@H]4CC[C@@H]23)[C@@H](CO)O1', 'z-score', 0.281),
  ('COc1ccc(COC(=O)NN=C2C[C@@H](O)[C@@H](O)[C@@H]3[C@@H]4C(=O)N(Cc5ccccc5)C(=O)[C@@H]4CC[C@@H]23)cc1', 'z-score', -0.13),
  ('O=C(NN=C1C[C@@H](O)[C@@H](O)[C@@H]2[C@@H]3C(=O)N(c4ccc(F)cc4F)C(=O)[C@@H]3CC[C@H]12)OCc1ccccc1', 'z-score', -1.39),
  ('CCN1C(=O)[C@H]2[C@H]3[C@H](O)[C@H](O)CC(=NOCC(C)C)[C@H]3CC[C@H]2C1=O', 'z-score', -0.391),
  ('CC(=O)OC[C@H]1O[C@H](CC=NOC(C)CN2CCCc3nc(C)c(C)cc32)C=C[C@@H]1OC(C)=O (stereo not given in full)', 'z-score', -0.806),
  ('O=C1[C@H]2[C@H]3[C@H](O)[C@H](O)CC(=NOC[C@@H](O)COCc4ccco4)[C@@H]3CC[C@H]2C(=O)N1c1cccc(Oc2ccccc2)c1', 'z-score', -1.19),
  ('O=C1CCCC=C1C(O)C1CCCCC1 (stereo not given)', 'z-score', -0.22),
  ('COc1ccc(COC(=O)NN=C2C[C@@H](O)[C@@H](O)[C@@H]3[C@@H]4C(=O)N(C5CCCCC5)C(=O)[C@@H]4CC[C@@H]23)cc1', 'z-score', 0.494),
  ('CC(C)CON=C1C[C@@H](O)[C@@H](O)[C@@H]2[C@@H]3C(=O)N(Cc4ccc5c(c4)OCO5)C(=O)[C@@H]3CC[C@@H]12', 'z-score', -0.211),
  ('CCOC(=O)CCN1C(=O)[C@H]2[C@H]3[C@H](O)[C@H](O)CC(=NOCC(C)C)[C@@H]3CC[C@H]2C1=O', 'z-score', -0.194),
  ('COC(=O)[C@H](Cc1ccccc1)NC(=O)[C@@H](C)CO', 'z-score', -0.196),
  ('COC(=O)[C@@H]1CC[C@H](C)[C@@H](c2ccc(Br)cc2)N1C[C@@H](O)CN=[N+]=[N-]', 'z-score', -0.494);
